Numbers sourced from patent US20260308159A1.

target: human GPR68 (Homo sapiens, UniProt Q15743); construct: encoding full-length human GPR68 (uniprot ID: Q15743); expressed in transfected cells; host or cells: HEK293T; assay: GPR68 Biochemical Assay (Promega GloSensor cAMP assay, GPR68 antagonism); assay type: cell-based; conditions: HEK293T cells transiently expressing hGPR68, antagonism of pH 5.5 stimulated cAMP, 15 min, read-out: hGPR68 IC50
Sequence (Q15743 whole entry): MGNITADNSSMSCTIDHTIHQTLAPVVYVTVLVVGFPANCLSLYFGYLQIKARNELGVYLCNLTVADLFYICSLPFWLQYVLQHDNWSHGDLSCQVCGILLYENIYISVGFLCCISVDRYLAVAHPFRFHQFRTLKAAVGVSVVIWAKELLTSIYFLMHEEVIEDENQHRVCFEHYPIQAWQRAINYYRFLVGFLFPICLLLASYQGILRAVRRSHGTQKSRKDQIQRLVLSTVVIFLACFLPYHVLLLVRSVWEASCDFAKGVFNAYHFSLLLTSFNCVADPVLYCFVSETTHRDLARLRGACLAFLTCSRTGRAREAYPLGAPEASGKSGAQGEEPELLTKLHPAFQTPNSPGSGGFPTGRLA
compounds and their reported IC50

# annotated cases, reported IC50 shown
compound="COCc1nn2c(C(=O)NC3Cc4ccc(F)cc4C3)ccnc2c1C(N)=O (stereo not shown)" endpoint_name=IC50 result="< 50 nM"
compound=COCc1nc2c(C(=O)NC3CCC(F)(F)CC3)ccnn2c1C(N)=O endpoint_name=IC50 result="< 50 nM"
compound="COCc1nn2c(C(=O)NC(c3ccc(F)cc3)C(F)(F)F)ccnc2c1C(N)=O (stereo not shown)" endpoint_name=IC50 result="500 to 5000 nM"
compound=COCc1nn2c(C(=O)NCc3cccc(F)c3)ccnc2c1C(N)=O endpoint_name=IC50 result="50 to 500 nM"
compound=O=C(NC1Cc2ccccc2C1)c1cccc2c(-c3ncco3)cnn12 endpoint_name=IC50 result="5000 to 50000 nM"

Challenge: Please report the recorded IC50 for NC(=O)c1c(C2CC2)nn2c(C(=O)NC3CS(=O)(=O)c4ccccc43)ccnc12 (stereo not shown) .
Response given: < 50 nM

Challenge: Please report the recorded IC50 for COCc1nn2c(C(=O)N[C@H]3CCc4ccccc4C3)ccnc2c1C(N)=O .
Response given: < 50 nM

Challenge: Please report the recorded IC50 for COCc1nc2c(C(=O)NC3CS(=O)(=O)c4ccccc43)ccnn2c1C(N)=O (stereo not shown) .
Response given: < 50 nM

Challenge: Please report the recorded IC50 for COCc1nn2c(C(=O)Nc3cc(C(F)(F)F)ccn3)ccnc2c1C(N)=O .
Response given: 50 to 500 nM

Challenge: Please report the recorded IC50 for NC(=O)c1c(-c2cccnn2)nn2c(C(=O)NC3Cc4ccccc4C3)ccnc12 .
Response given: 500 to 5000 nM
